Test: binders of probe aFGF2 on microarray, primary screen, stem cell growth factor project, biochemical, small-molecule microarray, fluorescence 635/667 (AID 1067);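 also: measures binding of biotinylated aFGF2 protein to printed compounds on slides; z-score merges feature fluorescence and signal-to-noise across triplicate slides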
Condition Notes: higher = more signal
Reported Endpoint: composite z-score

# Molecule, Reported Endpoint, Measurement
rows = [
    ("CCN1C(=O)[C@H]2[C@H]3[C@H](O)[C@H](O)CC(=O)[C@@H]3CC[C@H]2C1=O", "composite z-score", -0.0692),
    ("CCCCC#C[C@@H]1C=C[C@H](Oc2cc(OC)c(OC)c(OC)c2)[C@@H](COC(=O)OCC)O1", "composite z-score", -0.116),
    ("CO[C@@H]1COC(=O)[C@@H]2CCCN2C(=O)[C@@H](C)COC(=O)CC=C[C@H]1C", "composite z-score", -0.122),
    ("O=C1CCCC=C1C(CCc1ccccc1)OC(=O)c1ccc(Br)cc1 (stereo not given)", "composite z-score", -0.0841),
    ("O=c1n(-c2ccccc2)c(=O)n2n1CC[C@@H]1C(=NOCc3ccccc3)[C@H]3O[C@H]3[C@@H](O)[C@@H]12", "composite z-score", -0.0494),
    ("CCOC(=O)NN=C1C[C@@H](O)[C@@H](O)[C@@H]2[C@@H]3C(=O)N(Cc4ccccc4)C(=O)[C@@H]3CC[C@H]12", "composite z-score", -0.124),
    ("COc1ccc(O[C@H]2C=C[C@@H](c3ccccc3)O[C@@H]2COC(=O)CCC(C)=NOC(C)CN2CCCc3nc(C)c(C)cc32)cc1 (stereo not given in full)", "composite z-score", -0.062),
    ("C#CCCCON=C1C[C@@H](O)[C@@H](O)[C@@H]2[C@@H]3C(=O)N(c4ccc(F)cc4F)C(=O)[C@@H]3CC[C@@H]12", "composite z-score", -0.138),
    ("COc1cccc([C@H]2Oc3ccc(OC)cc3C(=NOC(C)CN3CCCCc4nc(C)c(C)cc43)[C@@H]2O)c1 (stereo not given in full)", "composite z-score", -0.0005),
    ("CC(C)CON=C1[C@H]2CCn3c(=O)n(Cc4cc5c(cc4Cl)OCO5)c(=O)n3[C@H]2[C@H](O)[C@@H]2O[C@H]12", "composite z-score", -0.079),
    ("CC(CCN1CCc2nc(-c3ccccc3)c(-c3ccccc3)cc2C1)=NOC[C@@H](O)[C@H]1O[C@@H]2OC(C)(C)O[C@@H]2[C@H]1O", "composite z-score", -0.085),
    ("CCOC(=O)[C@H](Cc1ccccc1)NC(=O)OC1CC(CCC2CC(CC)=NO2)OC2(CCCC(COC(=O)NCCC(C)C)O2)C1 (stereo not given in full)", "composite z-score", -0.0692),
    ("COC(=O)CC=C[C@@H](C)[C@@H](C=NO[C@@H]1O[C@H](COC(C)=O)[C@@H](OC(C)=O)[C@H](OC(C)=O)[C@H]1OC(C)=O)OC", "composite z-score", 0.0167),
    ("COC(=O)CC=C[C@@H](C)[C@@H]1C=C[C@H](O)[C@@H](CO)O1", "composite z-score", -0.106),
    ("COc1cc(O)c(C(=O)C=Cc2ccc3c(c2)OCO3)c(OC)c1", "composite z-score", 0.0198),
    ("CCOC(=O)NN=C1C[C@@H](O)[C@@H](O)[C@@H]2[C@@H]3C(=O)N(c4cccc(Oc5ccccc5)c4)C(=O)[C@@H]3CC[C@@H]12", "composite z-score", -0.085),
    ("Cn1c(=O)n2n(c1=O)[C@H]1[C@H](O)[C@@H]3O[C@@H]3C(=NOCc3ccccc3)[C@H]1CC2", "composite z-score", -0.085),
    ("CCOC(=O)NN=C1C[C@@H](O)[C@@H](O)[C@@H]2[C@@H]3C(=O)N(Cc4ccc5c(c4)OCO5)C(=O)[C@@H]3CC[C@H]12", "composite z-score", -0.113),
    ("COc1ccc(O[C@H]2C=C[C@@H](c3ccccc3)O[C@@H]2CON=C(C)C)cc1", "composite z-score", 0.0333),
    ("CCCCC#C[C@@H]1C=C[C@H](Oc2ccc(C(=O)OC)cc2)[C@@H](COC(=O)OCC)O1", "composite z-score", -0.0874),
    ("CCOC(=O)NN=C1C[C@@H](O)[C@@H](O)[C@@H]2[C@@H]3C(=O)N(c4cccc(Oc5ccccc5)c4)C(=O)[C@@H]3CC[C@H]12", "composite z-score", -0.187),
    ("CC(C)=CCCC(C)=CCON=C1C[C@@H](O)[C@@H](O)[C@@H]2[C@@H]3C(=O)N(c4ccc(F)cc4F)C(=O)[C@@H]3CC[C@@H]12", "composite z-score", -0.116),
    ("O=C(NN=C1C[C@@H](O)[C@@H](O)[C@@H]2[C@@H]3C(=O)N(C[C@@H]4CCCO4)C(=O)[C@@H]3CC[C@@H]12)OCc1ccccc1", "composite z-score", -0.173),
    ("Cc1cc2c(nc1C)CCCCN2CC(C)ON=C1[C@H]2CCn3c(=O)n(-c4ccccc4)c(=O)n3[C@H]2[C@H](O)[C@@H]2O[C@H]12 (stereo not given in full)", "composite z-score", 0.0051),
    ("CON=Cc1ccc(C(=O)N2[C@H](c3ccc(C)cc3)[C@@H](C)CC[C@H]2C(=O)OC)cc1", "composite z-score", -0.134),
    ("C#CCCCON=C1C[C@@H](O)[C@@H](O)[C@@H]2[C@@H]3C(=O)N(CCC(=O)OCC)C(=O)[C@@H]3CC[C@H]12", "composite z-score", -0.0502),
    ("CCN1C(=O)[C@H]2[C@H]3[C@H](O)[C@H](O)CC(=NO[C@@H](C)c4cn([C@H](CO)Cc5ccccc5)nn4)[C@@H]3CC[C@H]2C1=O", "composite z-score", -0.0704),
    ("CO[C@@H]1COC(=O)CC=C[C@H](C)[C@H](OC)COC(=O)[C@H](C)NC(=O)CC=C[C@H]1C", "composite z-score", -0.132),
    ("CCN1C(=O)[C@H]2[C@H]3[C@H](O)[C@H](O)CC(=NOC[C@H]4O[C@H](c5ccccc5)C=C[C@@H]4Oc4ccc(OC)cc4)[C@@H]3CC[C@H]2C1=O", "composite z-score", 0.0338),
    ("CON=CC[C@@H]1C=C[C@H](OC(C)=O)[C@@H](COC(C)=O)O1", "composite z-score", -0.0006),
]

* * *

Test: Plasmodium falciparum growth inhibition, primary screen, strain 3D7, DAPI fluorescence, 100 nL (AID 1184);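 also: parasites grown inside human red blood cells in medium with human serum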
Condition Notes: P. falciparum 3D7 growth, 3 d, higher = more signal
This section presents compounds with their documented z-score values.
Reported Endpoint: z-score

# Compound, Measurement
rows = [
    ("COc1cccc([C@H]2Oc3ccc(OC)cc3C(=NO[C@@H](C)c3cn([C@H](CO)Cc4ccccc4)nn3)[C@@H]2O)c1", -0.868),
    ("CC(=O)OC[C@H]1O[C@H](CC=NO[C@H](C)c2cn([C@H](CO)Cc3ccccc3)nn2)C=C[C@@H]1OC(C)=O", 0.242),
    ("O=C1[C@H]2[C@H]3[C@H](O)[C@H](O)CC(=NOC[C@@H](O)COCc4ccco4)[C@H]3CC[C@H]2C(=O)N1Cc1ccccc1", 0.254),
    ("CCOC(=O)[C@H](CC(C)C)NC(=O)CCC1CC(OC(=O)NCc2ccc3c(c2)OCO3)CC2(CCCC(COC(=O)NCc3cccc(C(F)(F)F)c3)O2)O1 (some centres undefined)", -2.06),
]

* * *

Test: yeast growth modulation, basal conditions, primary screen, YJM789 clinical isolate, OD600, 24 h (AID 1089);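 also: growth of clinical yeast isolate S. cerevisiae YJM 789 seeded 1000 cells per well; test concentration not given here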
Condition Notes: S. cerevisiae YJM789 growth, higher = more signal, called active from +8 up or from −8 down
Listed here: items and their measured z-score.
Reported Endpoint: z-score

# Molecule, Reported Endpoint, Measurement
data = [
    ("COC(=O)[C@@H]1CC[C@H](C)[C@@H](c2ccc(C)cc2)N1C(=O)c1ccc(C=NO[C@H](C)c2cn([C@H](CO)Cc3ccccc3)nn2)cc1", "z-score", 0.149),
    ("CCC1=NOC(CCC2CC(OC(=O)NCc3cccc4c3OCO4)CC3(CCCC(COC(=O)NCCc4ccccc4OC)O3)O2)C1 (stereo unspecified)", "z-score", -0.873),
    ("CO[C@@H]1COC(=O)[C@@H](C)COC(=O)[C@@H](C)NC(=O)CC=C[C@@H]1C", "z-score", -2.2),
    ("COCCNC(=O)OCC1CCCC2(CC(OC(=O)NCc3ccc4c(c3)OCO4)CC(CCC(=O)N[C@@H](C)C(=O)OC)O2)O1 (stereo partly specified)", "z-score", -0.05),
    ("O=C1CCCC=C1C(O)CCOC(c1ccccc1)(c1ccccc1)c1ccccc1 (stereo unspecified)", "z-score", 0.162),
    ("CCOC(=O)[C@H](Cc1ccccc1)NC(=O)CCC1CC(OC(=O)NCc2cccc3ccccc23)CC2(CCCC(COC(=O)NCc3ccccc3)O2)O1 (stereo partly specified)", "z-score", -2.28),
    ("CC(=O)Nc1ccc([C@@H]2N[C@H](C(=O)O)CC[C@H]2C)cc1", "z-score", 0.216),
    ("COC(=O)CC=C[C@@H](C)[C@@H](C=NOCC[C@@H]1C=C[C@H](OC(C)=O)[C@@H](COC(C)=O)O1)NS(=O)(=O)c1ccc(C)cc1", "z-score", 0.787),
    ("CCOC(=O)[C@H](CC(C)C)NC(=O)CCC1CC(OC(=O)NCc2cccc3ccccc23)CC2(CCCC(COC(=O)NCC3CCCCC3)O2)O1 (stereo partly specified)", "z-score", -0.402),
    ("COC(=O)[C@H]1[C@@H](O)[C@@]2(O)c3ccccc3O[C@@]2(c2ccccc2)[C@@H]1c1ccccc1", "z-score", 0.0966),
    ("CO[C@H]1COC(=O)[C@@H](C)COC(=O)[C@H](COCc2ccccc2)NC(=O)CC=C[C@H]1C", "z-score", 0.0827),
    ("C[C@@H](c1ccccc1)N1C(=O)[C@H]2[C@H]3[C@H](O)[C@H](O)CC(=NO[C@@H]4O[C@H](CO)[C@@H](O)[C@H](O)[C@H]4O)[C@@H]3CC[C@H]2C1=O", "z-score", 0.114),
    ("CCCNC(=O)OC[C@H]1O[C@H](CCON=C(C)CCN2CCCc3nc(C)c(C)cc32)C=C[C@@H]1Oc1ccc(OC)cc1", "z-score", -0.663),
    ("CC(C)CON=C1C[C@@H](O)[C@@H](O)[C@@H]2[C@@H]3C(=O)N(C4CCCCC4)C(=O)[C@@H]3CC[C@@H]12", "z-score", 0.4),
    ("C=Cc1ccc([C@H]2N[C@H](C(=O)O)CC[C@@H]2C)cc1", "z-score", -0.382),
    ("CCOC(=O)[C@H](CC(C)C)NC(=O)CCC1CC(OC(=O)NCCc2ccc(F)cc2)CC2(CCCC(COC(=O)NCCc3ccccc3OC)O2)O1 (stereo partly specified)", "z-score", 0.217),
    ("COC(=O)[C@H](C)NC(=O)CCC1CC(OC(=O)NCc2ccc3c(c2)OCO3)CC2(CCCC(COC(=O)NCC3CCCCC3)O2)O1 (stereo partly specified)", "z-score", 0.147),
    ("CO[C@@H]1COC(=O)[C@@H]2CCCN2C(=O)[C@@H](C)COC(=O)CC=C[C@H]1C", "z-score", -0.414),
    ("CC(C)=CCCC(C)=CCON=C1C[C@@H](O)[C@@H](O)[C@@H]2[C@@H]3C(=O)N(Cc4ccccc4)C(=O)[C@@H]3CC[C@@H]12", "z-score", 0.432),
    ("Cc1ccc(S(=O)(=O)NC(CCc2ccccc2)CC(=O)C(C)(C)C)cc1 (stereo unspecified)", "z-score", -1.18),
    ("Cc1ccc(S(=O)(=O)N[C@@H]2COC(=O)[C@@H](C)COC(=O)CC=C[C@H]2C)cc1", "z-score", 1.19),
    ("CCOC(=O)NN=C1C[C@@H](O)[C@@H](O)[C@@H]2[C@@H]3C(=O)N([C@@H](C)c4ccccc4)C(=O)[C@@H]3CC[C@H]12", "z-score", -0.612),
    ("CCCCc1nc2c(c3c1C[C@H](C)OC3)CN(CCOc1ccccc1)CC2", "z-score", -2.26),
    ("C[C@H]1CC[C@H]2C(=O)OC(CO)CN2[C@@H]1c1ccc(Br)cc1 (stereo partly specified)", "z-score", -0.276),
    ("Cc1cc2c(c(=O)o1)[C@@H](O)[C@H]1O[C@H]1C2=O", "z-score", 0.112),
    ("COC(=O)CC=C[C@@H](C)[C@H](OCc1cccc(-c2ccccc2)c1)C1CCCCC1", "z-score", 1.44),
    ("CC(C)=CCCC(C)=CCON=C1C[C@@H](O)[C@@H](O)[C@@H]2[C@@H]3C(=O)N(c4ccc(F)cc4F)C(=O)[C@@H]3CC[C@H]12", "z-score", -0.912),
    ("C=CC[C@@H]1C=C[C@H](ON=C2[C@H]3CCn4c(=O)n(-c5ccccc5)c(=O)n4[C@H]3[C@H](O)[C@@H]3O[C@H]23)[C@@H](CO)O1", "z-score", 0.552),
    ("O=C1[C@H]2[C@H]3[C@H](O)[C@H](O)CC(=NOC[C@@H](O)COCc4ccco4)[C@H]3CC[C@H]2C(=O)N1C[C@@H]1CCCO1", "z-score", -0.193),
    ("CON=C[C@@H](C)[C@H](OCc1ccccc1)C(C)C", "z-score", 0.0195),
    ("CON=C(C)CCC(=O)OC[C@H]1O[C@H](c2ccccc2)C=C[C@@H]1Oc1ccc(OC)cc1", "z-score", 1.34),
]
